- system.name: KRAS G12C protein (Homo sapiens, UniProt P01116, G12C)
- Sequence (P01116 1-188 isoform P01116-2 G12C): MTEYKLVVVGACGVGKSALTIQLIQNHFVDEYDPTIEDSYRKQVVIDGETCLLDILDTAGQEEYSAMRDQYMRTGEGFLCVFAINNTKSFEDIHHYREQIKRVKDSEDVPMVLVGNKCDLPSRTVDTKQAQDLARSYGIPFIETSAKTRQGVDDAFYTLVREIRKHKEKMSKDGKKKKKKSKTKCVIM
- measurement.notes: Nucleotide exchange assay, Method III (TR-FRET, association of KRAS G12C with Raf-RBD, SOS1-mediated exchange)
- Type: biochemical
- settings: overnight (18 hr) incubation with GDP-bound KRAS G12C
pIC50: −log10 of the molar value.
What pIC50 was measured for each of the following?

1. C=CC(=O)N1CCC(n2c(=O)c(=O)n(-c3c(C)ccnc3C(C)C)c3nc(-c4c(O)cccc4F)c(F)cc32)C(C)C1 (single isomer, unassigned) [294 (Isomer F)]    5.52 to 6.52

Parameter requested: pIC50. Apply to each item below.
1. C=CC(=O)N1CCN(c2c(C(=O)NC)c(=O)n(-c3c(C)ccnc3C(C)C)c3nc(-c4c(O)cccc4F)c(F)cc23)CC1 (single isomer, unassigned) [84 (Isomer A)]
2. C=CC(=O)N1CCN(c2c(S(C)(=O)=O)c(=O)n(-c3c(C)ccnc3C(C)C)c3nc(-c4cccc5sc(N)nc45)c(F)cc23)C[C@H]1C (single isomer, unassigned) [249 (Isomer B)]
3. C=CC(=O)N1CCN(c2c(C(=O)NC)c(=O)n(-c3c(C)ccnc3C(C)C)c3nc(-c4c(C)ccc5[nH]ncc45)c(F)cc23)C[C@H]1C (single isomer, unassigned) [114 (Isomer A)]
4. C=CC(=O)N1CCN(c2c(S(C)(=O)=O)c(=O)n(-c3c(C)ccnc3C(C)C)c3nc(-c4c(O)cccc4F)c(F)cc23)[C@@H](C)C1 (single isomer, unassigned) [131 (Isomer A)]

Given back:
≥ 6.52
5.52 to 6.52
5.52 to 6.52
5.52 to 6.52

---

What IC50 was measured for each of the following?
- system.name: KRAS G12C protein (Homo sapiens, UniProt P01116, G12C)
- measurement.notes: Nucleotide exchange assay, Method III (TR-FRET, association of KRAS G12C with Raf-RBD, SOS1-mediated exchange)
- Type: biochemical
- settings: overnight (18 hr) incubation with GDP-bound KRAS G12C

Here are 5 compounds together with their reported answers.
1. C=CC(=O)N1CCN(c2c(S(C)(=O)=O)c(=O)n(-c3c(C)ccnc3C(C)C)c3c(F)c(-c4cccc5sc(N)nc45)c(Cl)cc23)CC1 (single isomer, unassigned) [252 (Isomer A)]    ≤ 300 nM
2. C=CC(=O)N1CCN(c2c(C(=O)NC)c(=O)n(-c3c(C)ccnc3C(C)C)c3nc(-c4c(C)ccc5[nH]ncc45)c(F)cc23)CC1 (single isomer, unassigned) [116 (Isomer B)]    300 to 3000 nM
3. C=CC(=O)N1CCC(n2c(=O)c(=O)n(-c3c(C)ccnc3C(C)C)c3nc(-c4c(O)cccc4F)c(F)cc32)C(C)C1 (single isomer, unassigned) [294 (Isomer E)]    ≥ 3000 nM
4. C=CC(=O)N1CCN(c2c(S(C)(=O)=O)c(=O)n(-c3c(C)ccnc3C(C)C)c3nc(-c4c(O)cccc4F)c(F)cc23)C[C@H]1C (single isomer, unassigned) [143 (Isomer A)]    300 to 3000 nM
5. C=CC(=O)N1CCN(c2c(S(C)(=O)=O)c(=O)n(-c3c(C)ccnc3C(C)C)c3c(F)c(-c4c(O)cccc4F)c(Cl)cc23)CC1 (single isomer, unassigned) [176 (Isomer A)]    ≥ 3000 nM

Parameter requested: IC50. Apply to each item below.
1. C=CC(=O)N1CCN(c2c(C(=O)NC)c(=O)n(-c3c(C)ccnc3C(C)C)c3nc(-c4c(O)cccc4F)c(F)cc23)C[C@@H]1CC#N (single isomer, unassigned) [80 (Isomer B)]
2. C=CC(=O)N1CCN(c2c(C(=O)NC)c(=O)n(-c3c(C)ccnc3C(C)C)c3nc(-c4cccc5sc(N)nc45)c(F)cc23)CC1 (single isomer, unassigned) [254 (Isomer A)]
3. C=CC(=O)N1CCN(c2c(S(C)(=O)=O)c(=O)n(-c3c(C)ccnc3C(C)C)c3c(F)c(-c4c(O)cccc4F)c(Cl)cc23)CC1 (single isomer, unassigned) [176 (Isomer B)]
4. C=CC(=O)N1CCN(c2c(S(C)(=O)=O)c(=O)n(-c3c(C)ccnc3C(C)C)c3nc(-c4c(O)cccc4F)c(F)cc23)CC1 (single isomer, unassigned) [123 (Isomer A)]

Given back:
300 to 3000 nM
300 to 3000 nM
≤ 300 nM
≤ 300 nM

Asked: For KRAS G12C protein (Homo sapiens, UniProt P01116, G12C), provide IC50 of C=CC(=O)N1CCC(n2c(=O)c(=O)n(-c3c(C)ccnc3C(C)C)c3nc(-c4c(O)cccc4F)c(F)cc32)CC1 (single isomer, unassigned) [1 (Isomer A)] please.
Given back: 300 to 3000 nM

---

What pIC50 was measured for each of the following?
- Tested on: NCI-H2030
- measurement.notes: Cell proliferation assay panel (Cell Titer-Glo), NCI-H2030
- Format: cell-based
- settings: Homo sapiens, 72 hr
pIC50: −log10 of the molar value.

1) C=CC(=O)N1CCN(c2c(S(C)(=O)=O)c(=O)n(-c3c(C)ccnc3C(C)C)c3nc(-c4c(O)cccc4F)c(F)cc23)CC1 (single isomer, unassigned) [123 (Isomer A)]    5.52 to 6.52

Moving on to the next compound.
Asked: Bench note: what pIC50 did C=CC(=O)N1CCN(c2c(C(=O)NC)c(=O)n(-c3c(C)ccnc3C(C)C)c3nc(-c4c(O)cccc4F)c(F)cc23)CC1 (single isomer, unassigned) [84 (Isomer B)] show?
Given back: ≤ 5.52

---

- system.name: KRAS G12C protein (Homo sapiens, UniProt P01116, G12C)
- measurement.notes: Nucleotide exchange assay, Method III (TR-FRET, association of KRAS G12C with Raf-RBD, SOS1-mediated exchange)
- Type: biochemical
- settings: overnight (18 hr) incubation with GDP-bound KRAS G12C
What IC50 was measured for each of the following?

Here are 3 compounds together with their reported answers.
1. C=CC(=O)N1CCN(c2c(S(C)(=O)=O)c(=O)n(-c3c(C)ccnc3C(C)C)c3c(F)c(-c4c(O)cccc4F)c(Cl)cc23)CC1 (single isomer, unassigned) [176 (Isomer C)]    300 to 3000 nM
2. C=CC(=O)N1CCN(c2c(C(=O)NC)c(=O)n(-c3c(C)ccnc3C(C)C)c3nc(-c4cccc5sc(N)nc45)c(F)cc23)C[C@H]1C (single isomer, unassigned) [253 (Isomer A)]    ≤ 300 nM
3. C=CC(=O)N1CCN(c2c(S(C)(=O)=O)c(=O)n(-c3c(C)ccnc3C(C)C)c3nc(-c4cccc5sc(N)nc45)c(F)cc23)CC1 (single isomer, unassigned) [250 (Isomer B)]    300 to 3000 nM

Parameter requested: IC50. Apply to each item below.
1. C=CC(=O)N1CCN(c2c(C(=O)NC)c(=O)n(-c3c(C)ccnc3C(C)C)c3nc(-c4c(C)ccc5[nH]ncc45)c(F)cc23)C[C@H]1C (single isomer, unassigned) [114 (Isomer B)]
2. C=CC(=O)N1CCC(n2c(=O)c(=O)n(-c3c(C)ccnc3C(C)C)c3nc(-c4c(O)cccc4F)c(F)cc32)C(C)C1 (single isomer, unassigned) [294 (Isomer A)]

Given back:
["≤ 300 nM", "≥ 3000 nM"]

---

- system.name: KRAS G12C protein (Homo sapiens, UniProt P01116, G12C)
- measurement.notes: Nucleotide exchange assay, Method III (TR-FRET, association of KRAS G12C with Raf-RBD, SOS1-mediated exchange)
- Format: biochemical
- settings: overnight (18 hr) incubation with GDP-bound KRAS G12C
pIC50: −log10 of the molar value.
What pIC50 was measured for each of the following?

Here are 2 compounds together with their reported answers.
1. C=CC(=O)N1CCN(c2c(S(C)(=O)=O)c(=O)n(-c3c(C)ccnc3C(C)C)c3nc(-c4c(C)ccc5[nH]ncc45)c(F)cc23)CC1 (single isomer, unassigned) [124 (Isomer A)]    ≥ 6.52
2. C=CC(=O)N1CCC(n2c(=O)c(=O)n(-c3c(C)ccnc3C(C)C)c3nc(-c4c(O)cccc4F)c(F)cc32)C[C@H]1C (single isomer, unassigned) [2 (Isomer A)]    ≤ 5.52

Moving on to the next compound.
Asked: Bench note: what pIC50 did C=CC(=O)N1CCN(c2c(S(C)(=O)=O)c(=O)n(-c3c(C)ccnc3C(C)C)c3nc(-c4c(O)cccc4F)c(F)cc23)C[C@@H]1CC#N (single isomer, unassigned) [135 (Isomer A)] show?
Given back: ≤ 5.52

---

- system.name: KRAS G12C protein (Homo sapiens, UniProt P01116, G12C)
- measurement.notes: Nucleotide exchange assay, Method III (TR-FRET, association of KRAS G12C with Raf-RBD, SOS1-mediated exchange)
- Assay type: biochemical
- settings: overnight (18 hr) incubation with GDP-bound KRAS G12C
pIC50: −log10 of the molar value.
experimental.endpoint: pIC50

1) C=CC(=O)N1CCN(c2c(S(C)(=O)=O)c(=O)n(-c3c(C)ccnc3C(C)C)c3c(F)c(-c4cccc5sc(N)nc45)c(Cl)cc23)CC1 (single isomer, unassigned) [252 (Isomer C)]    5.52 to 6.52
2) C=CC(=O)N1CCC(c2c(C(=O)NC)c(=O)n(-c3c(C)ccnc3C(C)C)c3nc(-c4c(O)cccc4F)c(F)cc23)CC1 (single isomer, unassigned) [68 (Isomer A)]    5.52 to 6.52
3) C=CC(=O)N1CCN(c2c(S(C)(=O)=O)c(=O)n(-c3c(C)ccnc3C(C)C)c3c(F)c(-c4cccc5sc(N)nc45)c(Cl)cc23)CC1 (single isomer, unassigned) [252 (Isomer D)]    ≥ 6.52
4) C=CC(=O)N1CCN(c2c(C(=O)NC)c(=O)n(-c3c(C)ccnc3C(C)C)c3nc(-c4c(O)cccc4F)c(F)cc23)C[C@@H]1CC#N (single isomer, unassigned) [80 (Isomer A)]    ≥ 6.52

Moving on to the next compound.
Asked: Bench note: what pIC50 did C=CC(=O)N1CCN(c2c(C(=O)NC)c(=O)n(-c3c(C)ccnc3C(C)C)c3nc(-c4c(C)ccc5[nH]ncc45)c(F)cc23)CC1 (single isomer, unassigned) [116 (Isomer A)] show?
Given back: ≥ 6.52
